- ASSAY_TEXT: Cellular toxicity assay in Vero cells
- Type: cell-based
- MEASUREMENT_CONDITIONS: African green monkey, Vero cells, Table 8A; MTT; read-out: Cytotoxicity: MTT IC50, Vero
QUANTITY_MEASURED: pIC50
Worth noting: pIC50 values are minus log10 of concentrations stated in mol/L.

## Input Data request, read-out pIC50, for C#C[C@]1(CO)O[C@@H](n2cnc3c(N)nc(F)nc32)C[C@@H]1O [drawing 67]
## Output 5.49

## Input Follow-up item: C#C[C@]1(CO)O[C@@H](n2cnc3c(N)nc(F)nc32)[C@H](O)[C@@H]1O [drawing 68]
## Output 4.89

// data source = patent US12239655B2
